Measured folding stability dG unfold accompanies every entry in the list below.
- method-description: folding stability dG unfold from trypsin proteolysis; higher = more stable
attribute-measured: folding stability dG unfold (kcal/mol)

> print(dat)
                              residue.codes  value.observed
1  SMTITIVVEAPPEEAKEKAEELEKELKEKLDKLREEAKKKGLSEEEIEEELKIKIKVVVVSKEDLEKLKPSA [r9_961_TrROS_Hall]           0.989
2  SAGGMVTVTDPNGVKHEYKLKVKITFEKPDGKPVTVEIEFDNVTVEDIVKIAKEIESKGYKLVSIEISSAGG [r13_227_TrMRF]            3.73
3  SAGGEKATVTVVYDPEKGYVVVPVDIPFLDENGKPKKLKLVFVLPASPEAEEAVKELAKELGLESVESAGGS [r8_381_TrMRF]            1.37
4  SAPSPSVPLDPVTTETVLVKDPEKGEEITLEILTDANSDEVLVRITYPDGSEVVLRLKKEEVEKVIEALSAG [r14_240_JUSTAS]               4
5  SAGGSAGGDKAVIVDFNPIEPEAVIYFPKTGKAIKFKFDSLEELRDSIEPSGIPVEIVITPPELSAGGSAGG [r6_27_TrMRF]          -0.138
6  SAGGSAGGSAMKTYTLEQIEELLKSLPEEEIEEVKIEEKEGKKVIYVKTKDGREIEIVVEPSAGGSAGGSAG [r3_291_TrROS_Hall]            2.86
7  SAGDQTITIKIPNAPPGSRVQIMLFDPGKIKGFHEIDPDDPKEVEIKIELPPYTIMIYVADGNVFPIPISAG [r5_646_TrROS]            1.94

Taken from the supplement of paper PMC12764529.
